experimentSummary: Plasma pharmacokinetics of BAY1436032 (LC-MS/MS)
Format: in vivo, human
testContext: human, plasma, oral, 600 mg, C1-D15 continuous BID, 600 mg BID, n=3; geometric mean (CV); read-out: AUC(0-8)md
quantity: AUC(0-t) (ng·h/mL)
Your answer is read as ng·h/mL, so omit the unit and give the number.

AUC(0-t) in this record for C[C@H]1C[C@@H](n2c(Nc3ccc(OC(F)(F)F)cc3)nc3cc(CCC(=O)O)ccc32)CC(C)(C)C1 : 22300

###

experimentSummary: Plasma pharmacokinetics of BAY1436032 (LC-MS/MS)
Type: in vivo, human
testContext: human, plasma, oral, 600 mg, C1-D15 continuous BID, 600 mg BID, n=4; geometric mean (CV); read-out: Cmax,md
quantity: Cmax (ng/mL)
Give your result in ng/mL as a bare value.

The compound listed as C[C@H]1C[C@@H](n2c(Nc3ccc(OC(F)(F)F)cc3)nc3cc(CCC(=O)O)ccc32)CC(C)(C)C1 [BAY1436032] has a reported Cmax of 5050

###

experimentSummary: Plasma pharmacokinetics of BAY1436032 (LC-MS/MS)
Assay type: in vivo, human
testContext: human, plasma, oral, 600 mg, C1-D1 single-dose, 600 mg, n=4; geometric mean (CV); read-out: AUC(0-12)
quantity: AUC(0-t) (ng·h/mL)
Express it in ng·h/mL; write the number only.

Sample C[C@H]1C[C@@H](n2c(Nc3ccc(OC(F)(F)F)cc3)nc3cc(CCC(=O)O)ccc32)CC(C)(C)C1 ; AUC(0-t) observed: 15200

###

experimentSummary: Plasma pharmacokinetics of BAY1436032 (LC-MS/MS)
Format: in vivo, human
testContext: human, plasma, oral, 1500 mg, C1-D1 single-dose, 1500 mg, n=9; geometric mean (CV); read-out: AUC(0-8)
quantity: AUC(0-t) (ng·h/mL)
Write the value in ng·h/mL as a bare number.

The recorded AUC(0-t) for C[C@H]1C[C@@H](n2c(Nc3ccc(OC(F)(F)F)cc3)nc3cc(CCC(=O)O)ccc32)CC(C)(C)C1 is 42200

###

experimentSummary: Plasma pharmacokinetics of BAY1436032 (LC-MS/MS)
Assay type: in vivo, human
testContext: human, plasma, oral, 600 mg, C1-D15 continuous BID, 600 mg BID, n=3; geometric mean (CV); read-out: AUC(0-12)md
quantity: AUC(0-t) (ng·h/mL)
The figure you give is taken to be in ng·h/mL; do not add the unit.

For record C[C@H]1C[C@@H](n2c(Nc3ccc(OC(F)(F)F)cc3)nc3cc(CCC(=O)O)ccc32)CC(C)(C)C1 the listed AUC(0-t) is 25400

###

experimentSummary: Plasma pharmacokinetics of BAY1436032 (LC-MS/MS)
Format: in vivo, human
testContext: human, plasma, oral, 600 mg, C1-D1 single-dose, 600 mg, n=4; geometric mean (CV); read-out: AUC(0-8)
quantity: AUC(0-t)

Summary for this compound, C[C@H]1C[C@@H](n2c(Nc3ccc(OC(F)(F)F)cc3)nc3cc(CCC(=O)O)ccc32)CC(C)(C)C1 : AUC(0-t) is 12500 ng·h/mL

###

experimentSummary: Plasma pharmacokinetics of BAY1436032 (LC-MS/MS)
Assay type: in vivo, human
testContext: human, plasma, oral, 300 mg, C1-D1 single-dose, 300 mg, n=7; geometric mean (CV); read-out: AUC(0-8)
quantity: AUC(0-t) (ng·h/mL)
Write the answer as a number in ng·h/mL, unit excluded.

# AUC(0-t) of C[C@H]1C[C@@H](n2c(Nc3ccc(OC(F)(F)F)cc3)nc3cc(CCC(=O)O)ccc32)CC(C)(C)C1 = 6600
